Values were extracted from the supplement of paper PMC5908809.

Tested on: SNK-6 (IL-2 2.5 ng/mL)
Assay: percent inhibition of viability; higher = more inhibition
Conditions: 72 h; 1000 nM
RESULT TYPE: percent inhibition of viability (%)
// note: answer is a bare numeric in %

Q) Given the entry COc1cccc2c1C(=O)c1c(O)c3c(c(O)c1C2=O)C[C@@](O)(C(C)=O)C[C@@H]3O[C@H]1C[C@H](N)[C@H](O)[C@H](C)O1 [Daunorubicin] (max concentration tested 1000 nM) , what percent inhibition of viability was observed with SNK-6 (IL-2 2.5 ng/mL)?
A) 94.5

Q) Given the entry CC(=O)NCC(=O)N1[C@@H]2CC[C@H]1c1ccc(Nc3ncc(C(F)(F)F)c(NC4CCC4)n3)cc12 (max concentration tested 10000 nM) , what percent inhibition of viability was observed with SNK-6 (IL-2 2.5 ng/mL)?
A) 85.3

Q) Given the entry CCn1c(-c2nonc2N)nc2c(C#CC(C)(C)O)ncc(OC[C@H]3CCCNC3)c21 (max concentration tested 10000 nM) , what percent inhibition of viability was observed with SNK-6 (IL-2 2.5 ng/mL)?
A) -11.1

----------
Tested on: YT (IL-2 2.5 ng/mL)
Assay: drug sensitivity score (DSS) (DSS units); higher = more sensitive; extreme values may be limits of the assay
Conditions: 72 h
Quick rule for you: drug sensitivity score at 8 or higher means T, lower means F.

Q) For this molecule, is measured drug sensitivity score 8 or higher? CO[C@H]1C[C@@H]2CC[C@@H](C)[C@@](O)(O2)C(=O)C(=O)N2CCCC[C@H]2C(=O)O[C@H]([C@H](C)C[C@@H]2CC[C@@H](OC(=O)C(C)(CO)CO)[C@H](OC)C2)CC(=O)[C@H](C)/C=C(\C)[C@@H](O)[C@@H](OC)C(=O)[C@H](C)C[C@H](C)/C=C/C=C/C=C/1C [Temsirolimus] (max concentration tested 100 nM)
A) T

Q) For this molecule, is measured drug sensitivity score 8 or higher? NCC(=O)Nc1ccc(-n2nc(C(F)(F)F)cc2-c2ccc3c(ccc4ccccc43)c2)cc1 (max concentration tested 25000 nM)
A) F

Q) For this molecule, is measured drug sensitivity score 8 or higher? O=C(O)c1ccc(O)c2ncccc12 [IOX-1] (max concentration tested 100000 nM)
A) F

Q) For this molecule, is measured drug sensitivity score 8 or higher? Oc1ncc(N(CCCl)CCCl)c(O)n1 [Uracil mustard] (max concentration tested 10000 nM)
A) F

Q) For this molecule, is measured drug sensitivity score 8 or higher? CN(c1ccccc1CNc1nc(Nc2ccc3c(c2)CC(=O)N3)ncc1C(F)(F)F)S(C)(=O)=O (max concentration tested 10000 nM)
A) T

----------
System: SNK-6 (IL-2 2.5 ng/mL)
Test: drug sensitivity score (DSS) (DSS units); higher = more sensitive; extreme values may be limits of the assay
Conditions: 72 h
Answer each item with its documented drug sensitivity score.

Q) Given the entry CC(C)C[C@@H](C(=O)N[C@H](C(=O)OC1CCCC1)c1ccccc1)[C@H](O)C(=O)NO [Tosedostat] (max concentration tested 10000 nM) , what drug sensitivity score was observed with SNK-6 (IL-2 2.5 ng/mL)?
A) 0

Q) Given the entry COc1cc(O)c2c(c1)/C=C/C[C@H](O)[C@H](O)C(=O)/C=C\C[C@H](C)OC2=O [(5Z)-7-Oxozeaenol] (max concentration tested 10000 nM) , what drug sensitivity score was observed with SNK-6 (IL-2 2.5 ng/mL)?
A) 8.87

Q) Given the entry Cc1[nH]c(/C=C2\C(=O)Nc3ccccc32)c(C)c1CCC(=O)O [Orantinib] (max concentration tested 10000 nM) , what drug sensitivity score was observed with SNK-6 (IL-2 2.5 ng/mL)?
A) 0

Q) Given the entry CC[C@]1(O)C[C@@H]2CN(CCc3c([nH]c4ccccc34)[C@@](C(=O)OC)(c3cc4c(cc3OC)N(C)[C@H]3[C@@](O)(C(=O)OC)[C@H](OC(C)=O)[C@]5(CC)C=CCN6CC[C@]43[C@@H]65)C2)C1 [Vinblastine] (max concentration tested 1000 nM) , what drug sensitivity score was observed with SNK-6 (IL-2 2.5 ng/mL)?
A) 27.2

Q) Given the entry O=C(c1ccc(F)c(F)c1Nc1ccc(I)cc1F)N1CC(O)([C@@H]2CCCCN2)C1 [Cobimetinib] (max concentration tested 1000 nM) , what drug sensitivity score was observed with SNK-6 (IL-2 2.5 ng/mL)?
A) 0
